# measured-target: Human CB2R (Cannabinoid receptor 2) (Homo sapiens)
# Sequence (P34972 whole entry): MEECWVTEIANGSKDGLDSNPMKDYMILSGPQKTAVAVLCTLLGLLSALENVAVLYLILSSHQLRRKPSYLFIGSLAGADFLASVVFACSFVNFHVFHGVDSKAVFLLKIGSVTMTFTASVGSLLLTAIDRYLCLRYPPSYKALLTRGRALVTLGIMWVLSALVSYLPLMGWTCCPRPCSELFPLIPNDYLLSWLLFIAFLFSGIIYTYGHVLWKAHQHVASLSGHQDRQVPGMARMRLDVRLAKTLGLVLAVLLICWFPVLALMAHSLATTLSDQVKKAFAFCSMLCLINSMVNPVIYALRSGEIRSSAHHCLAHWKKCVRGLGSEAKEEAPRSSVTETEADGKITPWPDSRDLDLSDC
# assay-details: CB-2 in vitro cAMP (HTRF) assay
# conditions-used: HEK cells, cAMP HTRF, 250 nM forskolin; mean where tested more than once; read-out: CB2 HEK_cAMP EC50
pEC50: −log10 of the molar value.

{"compound": "O=C(O)COc1ccc(Cn2c(C3CC3)nc3ccc(C(c4ccc(Cl)cc4)c4ccc(Cl)cc4)cc32)cc1", "pEC50": "< 5.00"}
{"compound": "COc1ccccc1S(=O)(=O)N1CCC(n2c(C3CC3)nc3ccc(C(c4ccc(Cl)cc4)c4ccc(Cl)cc4)cc32)CC1", "pEC50": "< 5.00"}
{"compound": "O=C(O)COc1ccc(S(=O)(=O)N2CCC(n3c(C4CC4)nc4ccc(C(c5ccc(Cl)cc5)c5ccc(Cl)cc5)cc43)CC2)cc1", "pEC50": "< 5.00"}
{"compound": "O=C(O)c1ccnc(N2CCC(Cn3c(C4CC4)nc4ccc(C(c5ccc(Cl)cc5)c5ccc(Cl)cc5)cc43)CC2)n1", "pEC50": 5.30}
{"compound": "O=C(O)c1cccc(CN2CCC(n3c(C4CC4)nc4ccc(C(c5ccc(Cl)cc5)c5ccc(Cl)cc5)cc43)CC2)c1F", "pEC50": 5.09}
{"compound": "NC(=O)c1ccc(S(=O)(=O)N2CCC(n3c(C4CC4)nc4ccc(C(CO)(c5ccc(Cl)cc5)c5ccc(Cl)cc5)cc43)CC2)cc1Cl", "pEC50": "< 5.00"}
{"compound": "Clc1ccc(C(c2ccc(Cl)cc2)c2ccc3nc(C4CC4)n(C4CCOCC4)c3c2)cc1", "pEC50": 5.17}
{"compound": "O=C(O)c1cccc(CN2CCC(n3c(C4CC4)nc4ccc(C(c5ccc(F)cc5)c5ccc(F)cc5)cc43)CC2)c1", "pEC50": "< 5.00"}
{"compound": "O=C(c1c[nH]nn1)N1CCC(n2c(C3CC3)nc3ccc(C(c4ccccc4)c4ccccc4)cc32)CC1", "pEC50": "< 5.00"}
{"compound": "O=S(=O)(N1CCC(O)(Cn2c(C3CC3)nc3ccc(C(c4ccc(Cl)cc4)c4ccc(Cl)cc4)cc32)CC1)C(F)(F)F", "pEC50": 5.05}
{"compound": "O=S(=O)(NCCCn1c(C2CC2)nc2ccc(C(c3ccc(Cl)cc3)c3ccc(Cl)cc3)cc21)c1cccc(Br)c1", "pEC50": 6.10}
{"compound": "NC(=O)c1ccc(CN2CCC(n3c(C4CC4)nc4ccc(C(c5ccc(Cl)cc5)c5ccc(Cl)cc5)cc43)CC2)cn1", "pEC50": 5.10}
{"compound": "O=C(O)c1ccc(N2CCC(Cn3c(C4CC4)nc4ccc(C(c5ccc(Cl)cc5)c5ccc(Cl)cc5)cc43)CC2)cc1", "pEC50": 5.55}
{"compound": "O=C(NCCCO)c1cccc(S(=O)(=O)N2CCC(n3c(C4CC4)nc4ccc(C(c5ccc(Cl)cc5)c5ccc(Cl)cc5)cc43)CC2)c1", "pEC50": "< 5.00"}
{"compound": "CC(C)(C)c1nc2ccc(C(c3ccc(Cl)cc3)c3ccc(Cl)cc3)cc2n1C1CCN(S(=O)(=O)C(F)(F)F)CC1", "pEC50": "< 5.00"}
{"compound": "Cc1cc(S(=O)(=O)N2CCC(n3c(C4CC4)nc4ccc(C(c5ccc(Cl)cc5)c5ccc(Cl)cc5)cc43)CC2)ccc1C(N)=O", "pEC50": "< 5.00"}
{"compound": "NC(=O)c1ccc(CN2CCC(n3c(C4CC4)nc4ccc(C(c5ccc(Cl)cc5)c5ccc(Cl)cc5)cc43)CC2)cc1", "pEC50": 5.41}
{"compound": "COc1ccc(C(c2ccc(OC)cc2)c2ccc3nc(C4CCC4)n(C4CCN(S(=O)(=O)C(F)(F)F)CC4)c3c2)cc1", "pEC50": "< 5.00"}
{"compound": "OC(c1ccc(Cl)cc1)(c1ccc2nc(CC(F)(F)F)n(CCc3cccc(Cl)c3)c2c1)c1nccs1 (stereo not drawn)", "pEC50": "< 5.00"}
{"compound": "O=C(O)CCc1nc2ccc(C(c3ccc(Cl)cc3)c3ccc(Cl)cc3)cc2n1C1CCN(S(=O)(=O)C(F)(F)F)CC1", "pEC50": "< 4.68"}
{"compound": "NC(=O)c1ccc(C(=O)N2CCC(n3c(C4CC4)nc4ccc(C(c5ccc(Cl)cc5)c5ccc(Cl)cc5)cc43)CC2)cn1", "pEC50": 5.48}
{"compound": "O=S(=O)(N1CCC(Cn2cnc3ccc(C(c4ccc(Cl)cc4)c4nccs4)cc32)CC1)C(F)(F)F (stereo not drawn)", "pEC50": "< 5.00"}
{"compound": "O=C(O)c1ccc(N[C@H]2CC[C@@H](n3c(C4CC4)nc4ccc(C(c5ccc(Cl)cc5)c5ccc(Cl)cc5)cc43)CC2)cc1", "pEC50": 5.67}
{"compound": "CCc1nc2ccc(C(c3ccc(Cl)cc3)c3ccc(Cl)cc3)cc2n1C1Cc2ccccc2C1", "pEC50": "< 5.00"}
{"compound": "CCc1csc(C(c2ccc(Cl)cc2)c2ccc3nc(C)n(Cc4ccc(Cl)cc4)c3c2)n1 (stereo not drawn)", "pEC50": "< 5.17"}
{"compound": "CCc1nc2ccc(C(c3ccc(Cl)cc3)c3nccs3)cc2n1-c1cccc(Cl)c1 (stereo not drawn)", "pEC50": "< 5.00"}
{"compound": "NC(=O)c1ccc(S(=O)(=O)N2CCC(n3c(C4CC4)nc4ccc(C(c5ccc(Cl)cc5)c5ccc(Cl)cc5)cc43)CC2)cc1F", "pEC50": "< 5.00"}
